# target-or-test-system: KDR (phospho-KDR, VEGF165-stimulated HUVEC cells) (Homo sapiens (Human), UniProt P35968)
# Sequence (P35968 20-1356): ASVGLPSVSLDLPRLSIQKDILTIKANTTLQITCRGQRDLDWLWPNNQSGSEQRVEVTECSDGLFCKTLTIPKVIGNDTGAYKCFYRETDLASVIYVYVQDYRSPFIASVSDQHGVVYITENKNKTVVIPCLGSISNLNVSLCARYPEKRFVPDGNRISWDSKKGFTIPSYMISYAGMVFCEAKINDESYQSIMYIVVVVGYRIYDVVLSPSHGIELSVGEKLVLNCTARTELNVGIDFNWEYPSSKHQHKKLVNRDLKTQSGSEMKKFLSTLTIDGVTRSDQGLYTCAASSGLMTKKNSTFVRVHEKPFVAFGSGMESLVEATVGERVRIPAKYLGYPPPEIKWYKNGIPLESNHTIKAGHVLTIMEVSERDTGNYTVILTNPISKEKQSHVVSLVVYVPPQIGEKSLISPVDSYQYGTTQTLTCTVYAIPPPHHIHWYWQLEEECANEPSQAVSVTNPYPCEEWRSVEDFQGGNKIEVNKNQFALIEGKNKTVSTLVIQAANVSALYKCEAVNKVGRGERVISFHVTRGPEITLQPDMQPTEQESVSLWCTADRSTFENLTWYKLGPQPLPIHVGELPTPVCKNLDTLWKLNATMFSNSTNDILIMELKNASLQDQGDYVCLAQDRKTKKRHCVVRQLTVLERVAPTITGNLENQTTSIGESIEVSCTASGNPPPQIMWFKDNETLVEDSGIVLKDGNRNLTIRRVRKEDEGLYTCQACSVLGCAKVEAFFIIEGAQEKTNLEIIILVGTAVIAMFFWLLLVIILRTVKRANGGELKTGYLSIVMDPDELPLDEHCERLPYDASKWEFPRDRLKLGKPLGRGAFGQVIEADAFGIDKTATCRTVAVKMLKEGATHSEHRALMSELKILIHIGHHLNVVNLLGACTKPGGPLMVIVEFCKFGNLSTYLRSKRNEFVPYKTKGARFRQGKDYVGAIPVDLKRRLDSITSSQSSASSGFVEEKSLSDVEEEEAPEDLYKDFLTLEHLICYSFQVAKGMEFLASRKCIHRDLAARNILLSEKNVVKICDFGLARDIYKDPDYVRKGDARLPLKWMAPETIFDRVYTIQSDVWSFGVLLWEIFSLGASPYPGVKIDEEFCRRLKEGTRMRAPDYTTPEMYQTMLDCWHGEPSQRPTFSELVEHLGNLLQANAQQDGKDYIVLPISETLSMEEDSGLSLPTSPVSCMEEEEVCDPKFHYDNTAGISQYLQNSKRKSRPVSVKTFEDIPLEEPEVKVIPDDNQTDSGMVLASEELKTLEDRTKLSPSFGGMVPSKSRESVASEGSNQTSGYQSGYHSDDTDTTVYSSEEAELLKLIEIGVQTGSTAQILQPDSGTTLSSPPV
# experiment-summary: KDR autophosphorylation ELISA in HUVEC cells (Example G)
# Format: cell-based
# measurement-context: cellular activity; KDR autophosphorylation ELISA in HUVEC cells
pIC50: −log10 of the molar value.
Entries annotated with measured pIC50

smiles-structure: COc1cc2nccc(Oc3ccc(NC(=O)c4cn(C(C)C)c(C)c(-c5ccc(F)cc5)c4=O)cc3F)c2nc1NS(C)(=O)=O
pIC50: < 6.52

Name the reported pIC50 value associated with the compound "COc1cc2nccc(Oc3ccc(NC(=O)c4cccn(-c5ccc(F)cc5)c4=O)cc3)c2nc1OC"
> 7.00

Name the reported pIC50 value associated with the compound "COc1cnc2c(Oc3ccc(NC(=O)c4ccc(C)n(-c5ccc(F)cc5)c4=O)cc3)ccnc2c1"
> 7.00

Name the reported pIC50 value associated with the compound "COc1cc2nccc(Oc3ccc(NC(=O)c4ncc(C)n(-c5ccc(F)cc5)c4=O)cc3F)c2nc1OC"
> 7.00

###

# target-or-test-system: Human MET (residues 956-1390) (Homo sapiens (Human))
# experiment-summary: Human Met kinase assay, HTRF KinEase (Example D-2)
# Assay type: biochemical
# measurement-context: protocol of Example D-2 (other compounds); read-out: c-Met IC50
pIC50: −log10 of the molar value. Where a name gives a salt, the structure may show the parent alone.
recorded-endpoint: pIC50

Take a look at these entries with their results.
compound: COc1cc2nccc(Oc3ccc(NC(=O)c4cn(C)c(CF)c(-c5ccc(F)cc5)c4=O)cc3F)c2nc1OC
target-or-test-system: Human MET (residues 956-1390) (Homo sapiens (Human))
pIC50: > 7.00
--
compound: COc1cc2nccc(Oc3ccc(NC(=O)c4cn(CC(F)(F)F)c(C)c(-c5ccc(F)cc5)c4=O)cc3F)c2nc1OC
target-or-test-system: Human MET (residues 956-1390) (Homo sapiens (Human))
pIC50: > 7.00
--
compound: COCCOc1nc2c(Oc3ccc(NC(=O)c4cnc(C)c(-c5ccc(F)cc5C)c4O)cc3F)ccnc2cc1OC
target-or-test-system: Human MET (residues 956-1390) (Homo sapiens (Human))
pIC50: > 7.00
--
compound: CCn1cc(C(=O)Nc2ccc(Oc3ccnc4cc(OC)cnc34)c(F)c2)c(=O)c(-c2ccc(F)cc2)c1
target-or-test-system: Human MET (residues 956-1390) (Homo sapiens (Human))
pIC50: > 7.00
--
compound: COc1cnc2c(Oc3ccc(NC(=O)c4cnc(C)c(-c5ccc(F)cc5)c4O)cc3F)ccnc2c1
target-or-test-system: Human MET (residues 956-1390) (Homo sapiens (Human))
pIC50: > 7.00

Name the reported pIC50 value associated with the compound "Cc1ncc(C(=O)Nc2ccc(Oc3ccnc4ccc(OCCN5CCOCC5)nc34)c(F)c2)c(O)c1-c1ccc(F)cc1"
> 7.00

Name the reported pIC50 value associated with the compound "COc1cc2nccc(Oc3ccc(NC(=O)c4cn(C5CC5)c(C)c(-c5ccc(F)cc5C)c4=O)cc3F)c2nc1OC"
6.52 to 7.00

Name the reported pIC50 value associated with the compound "COc1cc2nccc(Oc3ccc(NC(=O)c4cn(C(C)C)c(C)c(-c5ccc(F)cc5)c4=O)cc3)c2nc1OC"
> 7.00

Name the reported pIC50 value associated with the compound COc1cc2nccc(Oc3ccc(NC(=O)c4cn(C)c(C)c(-c5cccc(F)c5)c4=O)cc3F)c2nc1OC [Compound 37, hydrochloride]
> 7.00

Name the reported pIC50 value associated with the compound COc1cc2nccc(Oc3ccc(NC(=O)c4cn(C(C)C)c(C)c(-c5cccc(F)c5)c4=O)cc3F)c2nc1OC [Compound 30, hydrochloride]
> 7.00

###

# target-or-test-system: AXL (phospho-AXL, Gas6-stimulated A-172 glioblastoma cells) (Homo sapiens (Human), UniProt P30530)
# Sequence (P30530 26-894): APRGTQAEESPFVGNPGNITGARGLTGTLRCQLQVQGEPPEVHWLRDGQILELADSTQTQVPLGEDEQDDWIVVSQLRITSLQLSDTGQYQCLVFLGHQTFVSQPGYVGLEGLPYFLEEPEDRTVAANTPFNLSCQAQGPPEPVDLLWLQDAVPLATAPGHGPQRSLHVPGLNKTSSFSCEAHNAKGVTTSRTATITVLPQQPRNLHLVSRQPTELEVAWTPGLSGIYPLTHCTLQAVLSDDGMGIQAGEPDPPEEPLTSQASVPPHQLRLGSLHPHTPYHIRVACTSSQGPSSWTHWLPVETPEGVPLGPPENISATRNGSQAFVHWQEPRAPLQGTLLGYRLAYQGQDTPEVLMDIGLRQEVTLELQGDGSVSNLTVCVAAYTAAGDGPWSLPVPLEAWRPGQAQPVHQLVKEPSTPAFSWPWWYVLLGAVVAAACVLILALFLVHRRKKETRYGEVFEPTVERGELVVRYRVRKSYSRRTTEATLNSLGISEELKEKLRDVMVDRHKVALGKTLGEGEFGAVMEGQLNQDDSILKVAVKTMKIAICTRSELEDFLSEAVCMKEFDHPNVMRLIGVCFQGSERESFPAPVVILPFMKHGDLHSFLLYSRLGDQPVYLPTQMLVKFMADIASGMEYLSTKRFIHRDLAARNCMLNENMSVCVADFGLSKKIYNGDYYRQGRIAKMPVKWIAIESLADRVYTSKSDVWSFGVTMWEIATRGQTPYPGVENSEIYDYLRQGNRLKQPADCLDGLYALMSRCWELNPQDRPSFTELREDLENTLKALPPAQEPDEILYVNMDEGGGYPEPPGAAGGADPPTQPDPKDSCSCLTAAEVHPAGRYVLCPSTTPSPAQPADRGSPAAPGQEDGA
# experiment-summary: AXL autophosphorylation ELISA in A-172 cells (Example E)
# Type: cell-based
# measurement-context: cellular activity; AXL autophosphorylation ELISA in A-172 cells; read-out: Axl IC50
pIC50: −log10 of the molar value.
Entries annotated with measured pIC50

Take a look at these entries with their results.
compound: COc1cc2nccc(Oc3ccc(NC(=O)c4cc(-c5ccc(F)cc5)c(C)nn4)cc3F)c2nc1OC [Compound 601]
pIC50: < 6.52

compound: COc1cnc2c(Oc3ccc(NC(=O)c4cn(CC(F)F)c(C)c(-c5ccc(F)cc5C)c4=O)cc3F)ccnc2c1 [Compound 723]
pIC50: > 7.00

compound: CCc1c(C)c(C(=O)Nc2ccc(Oc3ccnc4cc(OC)c(OC)nc34)cc2)c(=O)n(-c2ccc(F)cc2)c1C [Compound 331]
pIC50: > 7.00

Name the reported pIC50 value associated with the compound COc1cc2nccc(Oc3ccc(NC(=O)c4cn5c(c(-c6ccc(F)cc6C)c4=O)COCC5)cc3F)c2nc1OC [Compound 766]
> 7.00

###

# target-or-test-system: Human MER (residues 528-999) (Homo sapiens (Human))
# Sequence (Q12866 528-999): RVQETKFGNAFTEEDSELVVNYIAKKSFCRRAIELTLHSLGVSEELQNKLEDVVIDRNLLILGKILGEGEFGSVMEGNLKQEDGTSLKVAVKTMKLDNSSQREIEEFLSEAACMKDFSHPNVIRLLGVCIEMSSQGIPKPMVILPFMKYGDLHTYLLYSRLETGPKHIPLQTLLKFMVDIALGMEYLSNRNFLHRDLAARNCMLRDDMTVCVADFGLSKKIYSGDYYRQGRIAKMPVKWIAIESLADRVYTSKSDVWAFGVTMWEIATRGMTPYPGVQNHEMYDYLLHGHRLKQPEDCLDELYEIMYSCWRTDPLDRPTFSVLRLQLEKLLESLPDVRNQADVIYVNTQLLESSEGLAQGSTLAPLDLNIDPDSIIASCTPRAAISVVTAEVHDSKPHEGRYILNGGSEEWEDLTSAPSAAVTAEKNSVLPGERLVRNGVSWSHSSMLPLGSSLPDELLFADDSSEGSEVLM
# experiment-summary: Human Mer kinase assay, HTRF KinEase (Example C-2)
# Format: biochemical
# measurement-context: protocol of Example C-2
# Description: Kinase activity and compound inhibition were also investigated using the HTRF® KinEase assay (Cisbio Cat #62TKOPEB) per manufacturer's instructions. […] After a 60 min incubation at room temperature, the fluorescence at 665 nm and 620 nm was read on an Envision microplate reader (Perkin Elmer). Kinase activity normalized to DMSO (100% activity) and reference compound at […] and (0% activity) was calculated using the fluorescence ratio 620/665×10,000. […]
Where a name gives a salt, the structure may show the parent alone.
recorded-endpoint: IC50

Take a look at these entries with their results.
compound: CCOc1c(C(=O)Nc2ccc(Oc3ccnc4cc(OC)c(OC)nc34)c(F)c2)nnc(C)c1-c1ccc(F)cc1
target-or-test-system: Human MER (residues 528-999) (Homo sapiens (Human))
recorded-measurement: < 100 nM
--
compound: CCc1nc(C)c(-c2ccc(F)cc2C)c(O)c1C(=O)Nc1ccc(Oc2ccnc3ccc(OC)nc23)cc1
target-or-test-system: Human MER (residues 528-999) (Homo sapiens (Human))
recorded-measurement: < 100 nM
--
compound: Cc1ccc2nccc(Oc3ccc(NC(=O)c4c(C)nc(C)c(-c5ccc(F)cc5C)c4O)cc3)c2n1
target-or-test-system: Human MER (residues 528-999) (Homo sapiens (Human))
recorded-measurement: 100 to 300 nM

Now take the following compound into account.
Name the reported IC50 value associated with the compound COc1nc2c(Oc3ccc(NC(=O)c4cn(C(C)C)cc(-c5ccc(F)cc5)c4=O)cc3F)ccnc2cc1-c1cccnc1 [Compound 605, hydrochloride]
< 100 nM

###

Entries annotated with measured IC50
# target-or-test-system: Met (phospho-Met, HGF-stimulated PC-3 prostate cancer cells) (Homo sapiens (Human))
# Sequence (P08581 25-1390): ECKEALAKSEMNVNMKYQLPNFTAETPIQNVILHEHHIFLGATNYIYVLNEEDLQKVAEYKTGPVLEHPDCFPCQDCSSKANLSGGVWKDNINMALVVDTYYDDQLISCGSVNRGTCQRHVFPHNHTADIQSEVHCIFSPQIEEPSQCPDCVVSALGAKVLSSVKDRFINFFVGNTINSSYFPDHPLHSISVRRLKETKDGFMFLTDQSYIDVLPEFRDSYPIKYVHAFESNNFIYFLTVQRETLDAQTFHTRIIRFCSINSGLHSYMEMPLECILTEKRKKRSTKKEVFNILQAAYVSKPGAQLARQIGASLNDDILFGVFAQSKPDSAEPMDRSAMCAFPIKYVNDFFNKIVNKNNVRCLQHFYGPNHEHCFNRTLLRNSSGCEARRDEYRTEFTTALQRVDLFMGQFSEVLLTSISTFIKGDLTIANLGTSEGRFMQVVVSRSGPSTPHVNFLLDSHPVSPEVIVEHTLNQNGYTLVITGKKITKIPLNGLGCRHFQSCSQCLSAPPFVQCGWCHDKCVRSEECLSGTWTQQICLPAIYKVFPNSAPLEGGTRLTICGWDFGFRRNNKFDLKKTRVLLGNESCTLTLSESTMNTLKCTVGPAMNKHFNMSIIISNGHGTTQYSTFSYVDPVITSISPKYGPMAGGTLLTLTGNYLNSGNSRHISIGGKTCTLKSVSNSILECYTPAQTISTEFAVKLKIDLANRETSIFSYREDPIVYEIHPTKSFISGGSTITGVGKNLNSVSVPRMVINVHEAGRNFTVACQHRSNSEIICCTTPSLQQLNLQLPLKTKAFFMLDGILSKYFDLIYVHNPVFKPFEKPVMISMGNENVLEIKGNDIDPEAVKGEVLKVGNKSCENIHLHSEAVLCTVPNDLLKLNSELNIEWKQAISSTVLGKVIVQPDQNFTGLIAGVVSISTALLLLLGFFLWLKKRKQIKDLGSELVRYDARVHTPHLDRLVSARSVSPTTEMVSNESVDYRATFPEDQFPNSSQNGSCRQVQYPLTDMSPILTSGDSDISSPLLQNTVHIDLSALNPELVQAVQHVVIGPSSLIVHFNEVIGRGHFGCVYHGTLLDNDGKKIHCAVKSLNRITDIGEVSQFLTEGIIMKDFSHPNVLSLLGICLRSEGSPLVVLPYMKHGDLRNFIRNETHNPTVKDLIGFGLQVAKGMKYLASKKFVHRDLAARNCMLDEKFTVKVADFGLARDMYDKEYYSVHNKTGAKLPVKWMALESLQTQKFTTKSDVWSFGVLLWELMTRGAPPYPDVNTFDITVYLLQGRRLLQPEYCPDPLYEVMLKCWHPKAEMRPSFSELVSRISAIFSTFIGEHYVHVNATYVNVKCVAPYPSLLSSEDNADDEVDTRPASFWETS
# experiment-summary: Met autophosphorylation ELISA in PC-3 cells (Example F)
# Format: cell-based
# measurement-context: cellular activity; Met autophosphorylation ELISA in PC-3 cells; read-out: c-Met IC50

Name the reported IC50 value associated with the molecule "COc1cc2nccc(Oc3ccc(NC(=O)c4nc(C)cn(-c5ccc(F)cc5)c4=O)cc3F)c2nc1OC"
< 100 nM

Name the reported IC50 value associated with the molecule "COc1cnc2c(Oc3ccc(NC(=O)c4c(C)nc(C)c(-c5ccc(F)cc5C)c4O)cc3)ccnc2c1"
< 100 nM

Name the reported IC50 value associated with the molecule "Cc1cc2nccc(Oc3ccc(NC(=O)c4cnc(C)c(-c5ccc(F)cc5)c4O)cc3F)c2nc1OCCCN1CCOCC1"
< 100 nM

Name the reported IC50 value associated with the molecule "COc1cc2nccc(Oc3ccc(NC(=O)c4c(C)n(CC(F)F)cc(-c5ccc(F)cc5C)c4=O)cc3F)c2nc1OC"
< 100 nM

###

# target-or-test-system: Human MET (residues 956-1390) (Homo sapiens (Human), UniProt P08581)
# experiment-summary: Human Met kinase assay, HTRF KinEase (Example D-2)
# Assay type: biochemical
# measurement-context: protocol of Example D-2 (other compounds); read-out: c-Met IC50
Entries annotated with measured IC50

compound: COc1cc2nccc(Oc3ccc(NC(=O)c4n[nH]c(C)c(-c5ccc(F)cc5C)c4=O)cc3F)c2nc1OC
IC50: < 100 nM
//
compound: COc1cc2nccc(Oc3ccc(NC(=O)c4cnc(C)c(-c5ccc(F)cc5)c4O)cc3F)c2nc1OCCCN1CCOCC1
IC50: < 100 nM
//
compound: COc1cnc2c(Oc3ccc(NC(=O)c4c(C)cc(C)n(-c5ccc(F)cc5)c4=O)cc3)ccnc2c1
IC50: < 100 nM
//
compound: CCc1nc(C)c(-c2ccc(F)cc2)c(O)c1C(=O)Nc1ccc(Oc2ccnc3ccc(OC)nc23)c(F)c1
IC50: < 100 nM
//
compound: COc1cc2nccc(Oc3ccc(NC(=O)c4cn(C5CCC5)cc(-c5ccc(F)cc5)c4=O)cc3F)c2nc1OC
IC50: < 100 nM
//
compound: Cc1ncc(C(=O)Nc2ccc(Oc3ccnc4cc(-c5cnn(C(F)F)c5)ccc34)cc2)c(O)c1-c1ccc(F)cc1
IC50: 100 to 300 nM

Name the reported IC50 value associated with the compound "CCOc1c(-c2ccc(F)cc2)cnc(C)c1C(=O)Nc1ccc(Oc2ccnc3cc(OC)c(OC)nc23)c(F)c1"
100 to 300 nM

Name the reported IC50 value associated with the compound "CCOc1c(C(=O)Nc2ccc(Oc3ccnc4cc(OC)c(OC)nc34)c(F)c2)c(=O)c(-c2ccc(F)cc2)c(C)n1C"
> 300 nM

Name the reported IC50 value associated with the compound "COc1cc2nccc(Oc3ccc(NC(=O)c4c(C)nc(O)c(-c5ccc(F)cc5)c4O)cc3F)c2nc1OC"
< 100 nM

Name the reported IC50 value associated with the compound COc1cc2nccc(Oc3ccc(NC(=O)C4=C5CCCN5CC(c5ccc(F)cc5)C4=O)cc3F)c2nc1OC (racemic) [Compound 373]
< 100 nM

Name the reported IC50 value associated with the compound "COc1cc2nccc(Oc3ccc(NC(=O)c4cn(C(C)C)c(C)c(-c5ccc(F)cc5)c4=O)cc3F)c2nc1Br"
< 100 nM
